Data provenance is ChEMBL document CHEMBL3046641.

Biological target: C-C chemokine receptor type 5 (Homo sapiens, UniProt P51681)
Sequence (P51681 whole entry): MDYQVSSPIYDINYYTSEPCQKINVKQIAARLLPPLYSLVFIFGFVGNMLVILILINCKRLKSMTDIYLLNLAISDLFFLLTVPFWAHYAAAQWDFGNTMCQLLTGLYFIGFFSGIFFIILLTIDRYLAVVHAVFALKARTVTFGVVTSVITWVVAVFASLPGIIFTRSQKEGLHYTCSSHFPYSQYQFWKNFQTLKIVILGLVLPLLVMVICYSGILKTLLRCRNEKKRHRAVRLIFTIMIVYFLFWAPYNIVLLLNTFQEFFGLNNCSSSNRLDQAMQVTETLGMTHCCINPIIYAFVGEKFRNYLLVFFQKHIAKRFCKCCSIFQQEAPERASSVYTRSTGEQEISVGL
Experiment: Antagonist activity at Homo sapiens (human) CCR5 receptor
pIC50: −log10 of the molar value.

compound	pIC50
CN(C[C@@H](CCN1CCC2(CC1)C[S+]([O-])c1ccccc12)c1ccc(Cl)c(Cl)c1)S(=O)(=O)c1cccc(Cl)c1 (some centres not stated)	6.00
CN(C[C@@H](CCN1CCC2(CC1)C[S+]([O-])c1ccccc12)c1ccc(Cl)c(Cl)c1)S(=O)(=O)c1ccc2ccccc2c1 (some centres not stated)	5.47
CN(C[C@@H](CCN1CCC2(CC1)C[S+]([O-])c1ccccc12)c1ccc(Cl)c(Cl)c1)S(=O)(=O)c1ccc2c(c1)CCC2 (some centres not stated)	5.23
CN(C[C@@H](CCN1CCC(Cc2ccccc2)CC1)c1cccc(Cl)c1)S(=O)(=O)c1ccccc1	6.19
CN(C[C@@H](CCN1CCC2(CC1)CS(=O)(=O)c1ccccc12)c1ccc(Cl)c(Cl)c1)S(=O)(=O)c1cccs1	5.92
CN(C[C@@H](CCN1CCC2(CC1)C[S+]([O-])c1ccccc12)c1ccc(Cl)c(Cl)c1)S(=O)(=O)c1ccccc1Cl (some centres not stated)	6.35
CN(C[C@@H](CCN1CCC2(CC1)CS(=O)(=O)c1ccccc12)c1ccc(Cl)c(Cl)c1)S(=O)(=O)c1cccc([N+](=O)[O-])c1	6.10
